- system tested: human PDHK2 (hPDHK2) (Homo sapiens (Human))
- test description: Inhibitory action of PDHK activity in vitro (kinase reaction, residual PDH activity measured)
- Assay type: biochemical
- experimental conditions: read-out: PDHK inhibitory activity IC50
result type: pIC50
Remember the convention: pIC50 equals -log10 of concentration in molar.

Solved entries (count: 6):
compound: CC(C)(C)OC(=O)c1ccc(-c2cc(-c3cccnc3)c3c(c2)C(O)(C(F)(F)F)c2ccccc2-3)cc1 (centres unmarked) [compound 341]
reported result: 7.10

compound: CC(C)Cc1cc(-c2cnn(CCO)c2)c2c(c1)C(O)(C(F)(F)F)c1ccccc1-2 (centres unmarked) [compound 631]
reported result: 7.21

compound: NC(=O)C1CCN(c2ccc3c(c2)C(O)(C(F)(F)F)c2ccccc2-3)CC1 (centres unmarked) [compound 230]
reported result: 5.43

compound: OCCCCOc1cc(CO)c2c(c1)C(O)(C(F)(F)F)c1ccccc1-2 (centres unmarked) [compound 611]
reported result: 6.48

compound: O=C1CCCN1CCOc1cc(CO)c2c(c1)C(O)(C(F)(F)F)c1ccccc1-2 (centres unmarked) [compound 583]
reported result: 7.19

compound: Cc1ncc(-c2cccc3c2-c2ccccc2C3(O)C(F)(F)F)o1 (centres unmarked) [compound 275]
reported result: 6.56

Lookup: Form field: reported pIC50 of Cn1cc(-c2cc(OCCNC(=O)CCC(=O)C(F)(F)F)cc3c2-c2ccccc2C3(O)C(F)(F)F)cn1 (centres unmarked) [compound 464]
Found: 7.38

Lookup: Also, CC(C)(C)C(=O)N1CCN(c2cc(-c3cccnc3)c3c(c2)C(O)(C(F)(F)F)c2ccccc2-3)CC1 (centres unmarked) [compound 285] please.
Found: 7.70

Each recorded value in this set is attributed to patent US8871934B2.
